# TEST SYSTEM: human TGF-beta 1 (R&D Systems, Cat # 240-B/CF) (human, UniProt P01137 279-390)
# Sequence (P01137 279-390 limits assumed): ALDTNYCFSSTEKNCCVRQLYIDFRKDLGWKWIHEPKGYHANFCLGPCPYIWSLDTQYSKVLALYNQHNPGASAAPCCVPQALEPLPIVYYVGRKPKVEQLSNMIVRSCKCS
# ASSAY REMARKS: cell-based or functional assay
OBSERVATION TYPE: Fold Improvement in IC50 relative to mAb2471 (HT-2 cell proliferation assay) (fold)
Numbers only, in fold.

Measured Fold Improvement in IC50 relative to mAb2471 (HT-2 cell proliferation assay) of mAb DM4 (antibody, human IgG4 S228P, kappa, V domains shown, Full-length IgG4 antibody; also called LA307-DM4) VH: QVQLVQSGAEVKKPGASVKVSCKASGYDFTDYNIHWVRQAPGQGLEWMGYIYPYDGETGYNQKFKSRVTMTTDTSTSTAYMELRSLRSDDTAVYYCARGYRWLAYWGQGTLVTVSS VL: DIQMTQSPSSLSASVGDRVTITCRASSSVSYMHWYQQKPGKAPKPLIYATSNLAYGVPSRFSGSGSGTDFTLTISSLQPEDFATYYCQQWDLNPPAFGQGTKLEIKR : 391
